System: Mycobacterium kansasii DSM 44162
Assay: Antimycobacterial screening, broth dilution MIC
Assay type: cell-based
Conditions: DSM44162, 336 h, DSM 44162, 14 days at 37 °C, read-out: MIC M. kansasii
Outcome Measure: MIC (µM)
One number for each entry, in µM.

Use the examples below as a reference point.
Name the reported MIC value associated with the molecule "Cc1cc(C)c(NC(=O)c2c(O)ccc3ccccc23)c(C)c1" 838

Also, "Cc1ccccc1NC(=O)c1c(O)ccc2ccccc12" please. 115

As a next step, examine the molecule that follows.
What value of MIC has been reported for the following molecule? "O=C(Nc1ccc([N+](=O)[O-])c(C(F)(F)F)c1)c1c(O)ccc2ccccc12" 21.3

----------
Test system: MRSA SA 3202
Experiment: Antibacterial screening, broth microdilution MIC
Assay type: cell-based, methicillin-resistant S. aureus
Settings: Staphylococcus aureus, clinical isolate, 24 h at 37 °C, read-out: MIC MRSA SA 3202
With a cut-off of 200 µM, any MIC strictly below it is called Satisfied; any MIC meeting it or above is called Not satisfied.

Worked set:
State whether 200 µM exceeds MIC recorded for "O=C(Nc1cccc([N+](=O)[O-])c1)c1c(O)ccc2ccccc12" . Not satisfied

Same for "Cc1ccccc1NC(=O)c1c(O)ccc2ccccc12" Not satisfied

Next compound up: "O=C(Nc1ccccc1[N+](=O)[O-])c1c(O)ccc2ccccc12" Satisfied

Moving on to "COc1ccc(NC(=O)c2c(O)ccc3ccccc23)cc1" Not satisfied

Now consider "COc1ccc(OC)c(NC(=O)c2c(O)ccc3ccccc23)c1" and answer again. Not satisfied

Next:
Hi there! Is MIC for "COc1ccc(C)cc1NC(=O)c1c(O)ccc2ccccc12" below 200 µM, do you know? Not satisfied

# repeat for "COc1ccc(Cl)c(NC(=O)c2c(O)ccc3ccccc23)c1" Satisfied

And what about the compound "O=C(Nc1ccc([N+](=O)[O-])c(C(F)(F)F)c1)c1c(O)ccc2ccccc12" ? Satisfied

----------
Assay: Lipophilicity determination by RP-HPLC (log k, log D)
Type: physicochemical
Details: RP-HPLC C18, MeOH 72 % / acetate-buffered saline pH 7.4
Outcome Measure: log D7.4
Numbers only.

See these solved cases before continuing.
// log D7.4 lookup, key: COc1cccc(C)c1NC(=O)c1c(O)ccc2ccccc12 [Compound 16] 0.0382

For COc1ccccc1NC(=O)c1c(O)ccc2ccccc12 [Compound 2] then? 0.3069

Turning to the following molecule.
Give its log D7.4 value. Item: Cc1ccc(C)c(NC(=O)c2c(O)ccc3ccccc23)c1 [Compound 11] 0.2514

----------
System: S. aureus ATCC 29213
Test: Antibacterial screening, broth microdilution MIC
Type: cell-based
Settings: Staphylococcus aureus, ATCC29213; ATCC 29213, 24 h at 37 °C; read-out: MIC S. aureus
Kindly state MIC for each of the entries shown.
Give bare numbers, in µM.

Quick one: give me MIC for each item below, same order please.
1. COc1cccc(C)c1NC(=O)c1c(O)ccc2ccccc12
2. Cc1ccc(NC(=O)c2c(O)ccc3ccccc23)cc1C(F)(F)F
3. CC1(C)S[C@@H]2[C@H](NC(=O)[C@H](N)c3ccccc3)C(=O)N2[C@H]1C(=O)O [AMP, ampicillin, reference compound]
4. O=C(Nc1ccccc1[N+](=O)[O-])c1c(O)ccc2ccccc12
5. COc1ccc(NC(=O)c2c(O)ccc3ccccc23)cc1C(F)(F)F
6. Cc1ccc(C(F)(F)F)cc1NC(=O)c1c(O)ccc2ccccc12
7. COc1ccc(OC)c(NC(=O)c2c(O)ccc3ccccc23)c1
8. Cc1cc(C)c(NC(=O)c2c(O)ccc3ccccc23)c(C)c1

1. 833
2. 23.2
3. 5.72
4. 26
5. 88.6
6. 2.9
7. 792
8. 838

I'm hoping you can list MIC for every compound here, please.
1. Cc1ccc(C)c(NC(=O)c2c(O)ccc3ccccc23)c1
2. COc1ccc(C)c(NC(=O)c2c(O)ccc3ccccc23)c1

[110, 104]

Working through the 3 compounds below one at a time, give MIC for each.
1. COc1ccc(C(F)(F)F)cc1NC(=O)c1c(O)ccc2ccccc12
2. O=C(Nc1cccc([N+](=O)[O-])c1)c1c(O)ccc2ccccc12
3. Cc1cc(C)cc(NC(=O)c2c(O)ccc3ccccc23)c1

709
208
54.9

----------
Test system: Enterococcus faecalis ATCC 29212
Assay: Antibacterial screening, broth microdilution MIC
Format: cell-based
Conditions: ATCC29212, ATCC 29212, 24 h at 37 °C, read-out: MIC E. faecalis
Kindly supply the reported MIC values for the records listed here.
Value and unit, in that order.

Consider the molecule "COc1ccc(Cl)c(NC(=O)c2c(O)ccc3ccccc23)c1" and give its measured MIC. 781 µM

One more molecule: "Cc1ccccc1NC(=O)c1c(O)ccc2ccccc12" 462 µM

Please look at the following molecule next.
Entry "O=C(Nc1ccc([N+](=O)[O-])cc1)c1c(O)ccc2ccccc12" has what MIC? 415 µM

----------
Tested on: Enterococcus faecalis ATCC 29212
Assay: Antibacterial screening, broth microdilution MIC
Format: cell-based
Conditions: ATCC29212, ATCC 29212, 24 h at 37 °C, read-out: MIC E. faecalis
What log10(MIC) was measured for each of the following?
Give log10 of MIC, with MIC taken in µM.

Param item = "Cc1ccc(C)c(NC(=O)c2c(O)ccc3ccccc23)c1" ; retrieve measured log10(MIC). 2.94

Entry to check: "COc1ccc(Br)cc1NC(=O)c1c(O)ccc2ccccc12" 2.84

What about "COc1ccc(C(F)(F)F)cc1NC(=O)c1c(O)ccc2ccccc12" ? 2.85

Here is the next compound: "Cc1cc(C)c(NC(=O)c2c(O)ccc3ccccc23)c(C)c1" 2.92

Record: "Cc1ccc(NC(=O)c2c(O)ccc3ccccc23)cc1C(F)(F)F" 2.87

Hi! Can you tell me log10(MIC) for each of these compounds?
1. O=C(Nc1ccc([N+](=O)[O-])c(C(F)(F)F)c1)c1c(O)ccc2ccccc12
2. Cc1cccc(C)c1NC(=O)c1c(O)ccc2ccccc12

[1.33, 2.94]

----------
Test: Lipophilicity determination by RP-HPLC (log k, log D)
Assay type: physicochemical
Conditions: RP-HPLC C18, MeOH 72 % / acetate-buffered saline pH 6.5
Outcome Measure: log D6.5
Answers are plain numbers.

Example compounds with recorded log D6.5:
Need log D6.5, item "Cc1ccc(NC(=O)c2c(O)ccc3ccccc23)cc1" 0.1553

Next record, please: "COc1ccc(C)cc1NC(=O)c1c(O)ccc2ccccc12" 0.4974

Could you tell me log D6.5 for each of these compounds? They are listed below.
1. Cc1cc(C)cc(NC(=O)c2c(O)ccc3ccccc23)c1
2. COc1ccc(C)c(NC(=O)c2c(O)ccc3ccccc23)c1
3. O=C(Nc1ccc([N+](=O)[O-])c(C(F)(F)F)c1)c1c(O)ccc2ccccc12
4. COc1cccc(NC(=O)c2c(O)ccc3ccccc23)c1
5. Cc1cccc(NC(=O)c2c(O)ccc3ccccc23)c1
6. COc1cccc(C)c1NC(=O)c1c(O)ccc2ccccc12
7. COc1ccc(C(F)(F)F)cc1NC(=O)c1c(O)ccc2ccccc12
8. Cc1ccc(C(F)(F)F)cc1NC(=O)c1c(O)ccc2ccccc12

1: 0.3429; 2: 0.1047; 3: 0.3282; 4: 0.1643; 5: 0.1644; 6: 0.0284; 7: 0.5323; 8: 0.3444

Quick batch: log D6.5 for everything below.
1. Cc1cc(C)c(NC(=O)c2c(O)ccc3ccccc23)c(C)c1
2. Cc1cccc(C)c1NC(=O)c1c(O)ccc2ccccc12

[0.2629, 0.0838]

----------
Experiment: Lipophilicity determination by RP-HPLC (log k, log D)
Format: physicochemical
Conditions: RP-HPLC C18, MeOH 72 % / water 28 %
Outcome Measure: log k (logarithm of the capacity factor)
Give bare numbers.

Below, each entry is followed by its recorded log k (logarithm of the capacity factor) result.
Which log k (logarithm of the capacity factor) value belongs to O=C(Nc1cccc([N+](=O)[O-])c1)c1c(O)ccc2ccccc12 [Compound 25] ? 0.4882

Would you kindly repeat that for COc1ccc(Br)cc1NC(=O)c1c(O)ccc2ccccc12 [Compound 19] ? 0.5845

Item: COc1ccc(NC(=O)c2c(O)ccc3ccccc23)cc1 [Compound 4] -0.0380

Now consider Cc1cccc(NC(=O)c2c(O)ccc3ccccc23)c1 [Compound 9] . 0.1762

Next up:
Look at this compound and give its reported log k (logarithm of the capacity factor). Cc1ccc(C)c(NC(=O)c2c(O)ccc3ccccc23)c1 [Compound 11] 0.2486
